This collection of values is drawn from PubChem BioAssay (NCI).

Experiment: NCI Yeast Anticancer Drug Screen. Data for the sgs1 mgt1 strain (AID 161);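 also: 0% = growth of cultures given vehicle only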
Conditions: S. cerevisiae sgs1 mgt1 strain, at 50.0 µM, active compounds read high
Procedure: Growth inhibition of yeast strains with defined genetic alterations is measured as a screen for potential anti-cancer activity. Selected strains with alterations in DNA damage repair or cell cycle control were exposed to compounds and growth inhibition was measured relative to vehicle treated controls. The strain used in this assay is sgs1 mgt1
The panel holds about 79,000 compounds, 15% with a hit somewhere; the sample as a whole holds those more often.
readout: growth inhibition (%)
Just the number please, in %, no unit attached.

Some solved entries appear below for comparison.
Oc1cccc2cc(Br)cnc12: 81.5
COc1ccc(C2=C(Cl)C(=O)N(c3ccc(O)cc3)C(=O)C2(Cl)Cl)cc1: 57.2
O=C(c1ccccc1)c1ccc2c(c1)CCCC2: 76.8
c1ccc2cc3c(ccc4cccc[n+]43)cc2c1: 35.6
CCCCCCCCCCCCOC(=O)C[n+]1cccc(C(=O)Nc2ccccc2)c1: 99.5
Cc1c(N=Nc2ccc(Br)cc2)c(-c2ccccc2)nn1C(N)=S: 98
O=[N+]([O-])c1ccc(NNS(=O)(=O)c2ccccc2)c([N+](=O)[O-])c1: 10.3
CCn1c2ccc([N+](=O)[O-])cc2c2c([N+](=O)[O-])c(-n3cccc3)ccc21: 36.4

Specify growth inhibition for `CCCCCC(=O)NNc1ccccc1` and stop.
80

Specify growth inhibition for CCCCCCCCCCCC1=NCC(C)N1 (configuration not stated) and stop.
28.6

Specify growth inhibition for `N/N=C(/N)SCCCCCCCCCCS/C(N)=N/N` and stop.
82.3

Specify growth inhibition for `CCCCCCCCCCCC(=O)OCCCCC` and stop.
65.8

Specify growth inhibition for `O=C(CBr)N1c2ccccc2Sc2ccc3ccccc3c21` and stop.
91.7

Specify growth inhibition for `CCC=Nc1c(O)cc(-c2ccccc2)n(C)c1=O` and stop.
70.8

Specify growth inhibition for `O=C(O)CSCc1cc2c3ccccc3sc2c2ccccc12` and stop.
93.2

Specify growth inhibition for `O=C(c1ccccc1)c1cn(/N=C\c2ccccc2)c(=O)nc1-c1ccccc1` and stop.
90.9

Specify growth inhibition for COC(=O)C1=Cc2cc3c(cc2[C@H](c2ccc4c(c2)OCO4)C1C(=O)OC)OCO3 (some centres not stated) and stop.
47.5

Specify growth inhibition for COC(=O)c1ccc2c(c1)C(O)NC(=O)O2 (configuration not stated) and stop.
98.9

Specify growth inhibition for COc1cc(C2c3cc4c(cc3OC(NNc3ccccc3)C2C)OCO4)cc(OC)c1O (configuration not stated) and stop.
98.4

Specify growth inhibition for `COc1ccc2nc3cc(Cl)ccc3c(NCCC[N+](C)(C)CCCCCCCCCCCCCCCC[N+](C)(C)CCCNc3c4ccc(Cl)cc4nc4ccc(OC)cc34)c2c1` and stop.
40.4

Specify growth inhibition for `Cc1cccc[n+]1CC(=O)c1cccc(O)c1` and stop.
-7.45

Specify growth inhibition for OC(Cc1ccc2ccccc2c1)CN1CCC(c2ccccc2)CC1 (configuration not stated) and stop.
91.2

---

Assay: NCI Yeast Anticancer Drug Screen. Data for the cln2 rad14 strain (AID 165);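 also: 0% = growth equal to vehicle treated cultures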
Conditions: S. cerevisiae cln2 rad14 strain, at 5.0 µM (retest, dose inferred, filed as 0.5), active compounds read high
Protocol: Growth inhibition of yeast strains with defined genetic alterations is measured as a screen for potential anti-cancer activity. Selected strains with alterations in DNA damage repair or cell cycle control were exposed to compounds and growth inhibition was measured relative to vehicle treated controls. The strain used in this assay is cln2 rad14
The panel holds about 79,000 compounds, 15% with a hit somewhere; the sample as a whole holds those more often. Activity calls are given as the source filed them. Cut-off read from the data, not from the text of the source: active = growth inhibition above about 70%; inactive = the rest.
The following molecules are shown together with reported growth inhibition values.

Some solved entries appear below for comparison.
COc1cc2c(oc(=O)c3cc(C)cc(OC)c32)c2c(C3OC(C)C(O)C(C)(O)C3O)ccc(O)c12 (stereo unspecified): 75% (active)
N#Cc1cccc2c1Sc1ccccc1N2: -5% (inactive)

Specify growth inhibition for `C1=CN2C(c3ccccc3)=NN(c3ccccc3)[C@@H]2c2ccccc21` and stop.
0% (inactive)

Specify growth inhibition for `c1ccc2c(Nc3ccc(Oc4ccc(Nc5c6ccccc6nc6ccccc56)cc4)cc3)c3ccccc3nc2c1` and stop.
6% (inactive)

Specify growth inhibition for `O=C(O)CCCCCCCCCC[S+](CCO)CCO` and stop.
20% (inactive)

Specify growth inhibition for `N#CI1OC(C(F)(F)F)(C(F)(F)F)c2ccccc21` and stop.
53% (inactive)

Specify growth inhibition for `COc1ccc2c3c(c4cc(OC)c(OC)cc4c2c1)CN1CCC[C@H]1[C@@H]3O` and stop.
90% (active)

Specify growth inhibition for OCc1ccc2c(c1)CC1(C2)Cc2cc3c(cc2C1O)CCC3 (stereo unspecified) and stop.
5% (inactive)

Specify growth inhibition for COc1ccccc1C1C2=C(COC2=O)OC(C)(C)Oc2cc3c(cc21)OCO3 (stereo unspecified) and stop.
35% (inactive)

Specify growth inhibition for `CS(=O)(=O)OCCN(CCOS(C)(=O)=O)c1ccc(C=Nc2ccc(-c3csc(-c4ccc(Br)cc4)n3)cc2)c(Cl)c1` and stop.
-10% (inactive)

Specify growth inhibition for COc1ccc(C2Cc3cc(OC)ccc3C2=O)cc1 (stereo unspecified) and stop.
19% (inactive)

Specify growth inhibition for `CCc1cccc(CC)c1NC(=O)CS` and stop.
-72% (inactive)

Specify growth inhibition for `CCC/C=C1/OC(=O)C2=C[C@H]3CC[C@]21[C@]1(OC(=O)C2=C1CCC=C2)[C@H]3CCC` and stop.
-6% (inactive)

Specify growth inhibition for CC(C)C1=C2CCC3(C)C(CCC4C5C6OCC5(CCC6(C)C)CCC43C)C2(C)CC1 (stereo unspecified) and stop.
27% (inactive)
